Source of measurements: patent US20230203100A1

TEST_SYSTEM: T1, Human AMY3 receptor (CT/RAMP3) (human, UniProt P30988)
T1 sequence 1: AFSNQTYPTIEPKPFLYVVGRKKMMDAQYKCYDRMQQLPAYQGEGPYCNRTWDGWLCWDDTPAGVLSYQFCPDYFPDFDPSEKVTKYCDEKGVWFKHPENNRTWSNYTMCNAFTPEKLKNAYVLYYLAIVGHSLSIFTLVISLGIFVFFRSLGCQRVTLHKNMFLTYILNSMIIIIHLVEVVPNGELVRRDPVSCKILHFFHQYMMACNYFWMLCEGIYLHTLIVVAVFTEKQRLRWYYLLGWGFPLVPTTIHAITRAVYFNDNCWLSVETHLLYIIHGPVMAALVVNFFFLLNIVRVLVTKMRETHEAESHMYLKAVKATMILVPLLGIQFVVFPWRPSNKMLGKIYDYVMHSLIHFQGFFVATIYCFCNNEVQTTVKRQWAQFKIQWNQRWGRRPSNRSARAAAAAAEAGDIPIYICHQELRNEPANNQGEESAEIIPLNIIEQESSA
T1 sequence 2: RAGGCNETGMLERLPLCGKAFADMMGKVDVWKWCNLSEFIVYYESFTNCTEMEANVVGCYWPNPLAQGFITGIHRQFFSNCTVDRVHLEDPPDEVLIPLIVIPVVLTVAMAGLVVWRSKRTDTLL
ASSAY_INFO: cell-based or functional assay
Starred links: 1 amine or outer side, 2 acyl side, 3 side chain; linkers in the order of their positions; H or OH if unused. Non-standard residues stand in square brackets, D forms with d. Groups on a side chain read outwards from the residue. γGlu = O=C(O)[C@H](CCC(=O)[*:2])N[*:1]; C(:O)(CH2)nR3 = not defined here
MEASUREMENT_KIND: EC50 (nM), cAMP cell-based agonist assay
Give bare numbers, in nM.

>>> obs_value("Peptide No. 17 (reading uncertain; also: K* n and R3 not given here, acetate salt) peptide: [dY]AEGTFTSDYSIALDKIAQQAFVQWLLAGGPSCNTATCVLGRLSQELHRLQTYPRTNTGK([γGlu-γGlu-C(:O)(CH2)nR3])NTY-NH2")
1.3

Input Peptide No. 15 (reading uncertain; also: K* n and R3 not given here, acetate salt) peptide: Y[dA]EGTFTSDYSIALDKIAQQAFVQWLLAGGPSCNTATCVLGRLSQELHRLQTYPRTNTGK([γGlu-γGlu-C(:O)(CH2)nR3])NTY-NH2 , output reported EC50 (nM), cAMP cell-based agonist assay.
1.1
